biological target: recombinant human HPK1 (Homo sapiens (Human)); assay: HPK1 kinase assay (Promega ADP-Glo kinase assay); conditions: In vitro activity against HPK1, 5 ng HPK1, MBP substrate, ATP 25 μM, 30° C. 40 minutes
Sequence (Q92918 whole entry): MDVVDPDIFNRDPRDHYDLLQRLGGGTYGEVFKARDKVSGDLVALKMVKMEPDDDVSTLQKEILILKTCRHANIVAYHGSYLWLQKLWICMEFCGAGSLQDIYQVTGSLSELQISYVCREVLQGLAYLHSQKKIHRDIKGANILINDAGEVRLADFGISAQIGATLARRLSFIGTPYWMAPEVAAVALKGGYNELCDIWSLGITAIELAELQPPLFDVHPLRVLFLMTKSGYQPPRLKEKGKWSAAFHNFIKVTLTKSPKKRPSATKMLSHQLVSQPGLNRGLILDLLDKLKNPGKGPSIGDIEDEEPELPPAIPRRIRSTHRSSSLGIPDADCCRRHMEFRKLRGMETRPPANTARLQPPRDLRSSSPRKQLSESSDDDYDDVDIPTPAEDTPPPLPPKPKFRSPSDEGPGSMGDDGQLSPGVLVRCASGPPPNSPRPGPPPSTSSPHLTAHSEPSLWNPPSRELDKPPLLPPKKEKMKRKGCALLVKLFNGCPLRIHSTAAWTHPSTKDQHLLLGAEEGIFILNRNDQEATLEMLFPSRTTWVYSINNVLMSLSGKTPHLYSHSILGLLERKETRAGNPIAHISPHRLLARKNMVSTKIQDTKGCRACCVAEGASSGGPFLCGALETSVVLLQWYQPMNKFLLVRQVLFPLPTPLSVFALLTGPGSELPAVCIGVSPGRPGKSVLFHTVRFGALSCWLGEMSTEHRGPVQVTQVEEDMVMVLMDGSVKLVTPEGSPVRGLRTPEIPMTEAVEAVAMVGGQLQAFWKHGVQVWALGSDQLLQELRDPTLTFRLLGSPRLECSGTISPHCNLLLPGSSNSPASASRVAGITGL
pIC50: −log10 of the molar value.
A collection of molecules and their measured pIC50

Solved entries:
Cc1c(F)c(C(C)N2C(=O)c3ccccc3C2=O)c2[nH]ncc2c1-c1cn2cc(NC(=O)[C@@H]3C[C@@H]3F)nc2cn1 (stereo partly shown) :: 6.30 to 7.00
CC(C)Nc1c(F)c(Cl)c(-c2cn3cc(NC(=O)[C@@H](C)N(C)C)nc3cn2)c2cn[nH]c12 :: 6.00 to 6.30
CSC(C)C(=O)Nc1cn2cc(-c3c(Cl)c(F)c(NC(C)C)c4[nH]ncc34)ncc2n1 (stereo not shown) :: 6.30 to 7.00

# input for lookup
Which pIC50 reading was recorded for the molecule CNC(C)c1c(F)c(C)c(-c2cn3cc(NC(=O)[C@@H]4C[C@@H]4F)nc3cn2)c2cn[nH]c12 (stereo partly shown) ?
6.30 to 7.00
